Ref: patent US20250313563A1

target: GSK3b (GST-full length GSK3b) (Homo sapiens (Human)); experiment: GSK3b TR-FRET kinase assay; type: biochemical; settings: 1 nM GSK3b, 2 μM ATP, 30 minute preincubation, Table 16; read-out: GSK3-B TR-FRET BIOCHEMICAL (TR-FRET); IC50
Sequence (P49841 whole entry): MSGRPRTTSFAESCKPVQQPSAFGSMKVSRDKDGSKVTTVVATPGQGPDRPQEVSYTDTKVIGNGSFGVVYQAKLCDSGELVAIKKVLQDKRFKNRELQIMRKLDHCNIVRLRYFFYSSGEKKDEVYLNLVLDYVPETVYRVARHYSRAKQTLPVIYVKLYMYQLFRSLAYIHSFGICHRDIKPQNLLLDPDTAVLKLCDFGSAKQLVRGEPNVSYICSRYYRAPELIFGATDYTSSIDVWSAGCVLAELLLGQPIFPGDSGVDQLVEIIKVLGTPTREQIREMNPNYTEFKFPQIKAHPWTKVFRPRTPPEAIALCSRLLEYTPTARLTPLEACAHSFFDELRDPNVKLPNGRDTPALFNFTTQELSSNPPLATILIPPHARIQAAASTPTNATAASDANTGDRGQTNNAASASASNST
pIC50: −log10 of the molar value.
Property: pIC50

Please give the measured pIC50 for this compound: C[C@@H]1C[C@H](C)C(=O)C2=C1Nc1n[nH]cc1C21CCOCC1
6.00 to 7.00

Return reported pIC50; argument: CC[C@]1(c2cccc(-c3cncn3C)c2)C2=C(CC(C)(C)CC2=O)Nc2n[nH]c(C)c21
6.00 to 7.00

// pIC50 lookup, key: CCC1(c2cccc(-c3ccncc3F)c2)C2=C(CC(C)(C)NC2=O)Nc2n[nH]c(Cl)c21 (stereo not drawn)
≥ 7.00

Param item = CCC1(c2cccc(Cc3ncccn3)c2)C2=C(CC(C)(C)NC2=O)Nc2n[nH]cc21 (stereo not drawn) ; retrieve measured pIC50.
5.30 to 6.00

Endpoint output: pIC50 of CC[C@]1(c2cccc([C@@H]3CCOC(C)(C)C3)c2)C2=C(CC(C)(C)CC2=O)Nc2n[nH]cc21 . Value?
< 5.30

New cases:
Please report the recorded pIC50 for CC[C@@]1(c2cccc(C3CCC3)c2)C2=C(CC(C)(C)CC2=O)Nc2n[nH]cc21 .
≥ 7.00
